testedOn: Serine/threonine-protein kinase ULK2 (Homo sapiens, UniProt Q8IYT8)
Sequence (Q8IYT8 whole entry, the tested form may be a part): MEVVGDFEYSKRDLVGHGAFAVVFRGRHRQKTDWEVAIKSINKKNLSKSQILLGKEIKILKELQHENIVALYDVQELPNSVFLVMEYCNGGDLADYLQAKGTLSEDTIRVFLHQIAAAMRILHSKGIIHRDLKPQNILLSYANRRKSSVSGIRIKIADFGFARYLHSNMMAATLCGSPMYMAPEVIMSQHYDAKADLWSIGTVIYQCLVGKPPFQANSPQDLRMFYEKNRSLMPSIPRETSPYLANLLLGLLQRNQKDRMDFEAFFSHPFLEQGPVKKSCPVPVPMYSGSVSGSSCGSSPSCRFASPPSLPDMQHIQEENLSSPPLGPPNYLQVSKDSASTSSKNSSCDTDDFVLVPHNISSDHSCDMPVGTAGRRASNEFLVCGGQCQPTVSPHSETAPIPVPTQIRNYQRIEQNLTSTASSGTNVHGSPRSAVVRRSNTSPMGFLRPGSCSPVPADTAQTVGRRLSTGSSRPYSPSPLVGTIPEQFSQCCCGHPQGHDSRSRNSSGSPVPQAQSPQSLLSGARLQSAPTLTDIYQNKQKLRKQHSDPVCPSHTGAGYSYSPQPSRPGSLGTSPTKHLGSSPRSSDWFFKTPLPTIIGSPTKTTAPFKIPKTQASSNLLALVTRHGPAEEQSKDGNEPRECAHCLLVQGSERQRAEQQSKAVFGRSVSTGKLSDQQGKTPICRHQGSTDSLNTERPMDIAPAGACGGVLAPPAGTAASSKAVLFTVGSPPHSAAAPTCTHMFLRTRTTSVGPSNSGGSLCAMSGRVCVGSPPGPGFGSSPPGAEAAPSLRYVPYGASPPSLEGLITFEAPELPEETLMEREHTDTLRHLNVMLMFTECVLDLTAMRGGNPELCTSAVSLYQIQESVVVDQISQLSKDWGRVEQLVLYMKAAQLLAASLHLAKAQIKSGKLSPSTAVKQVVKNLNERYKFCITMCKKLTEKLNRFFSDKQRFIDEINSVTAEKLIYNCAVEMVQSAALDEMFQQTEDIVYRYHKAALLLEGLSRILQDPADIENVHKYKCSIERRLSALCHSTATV
procedureSummary: Inhibition of ULK2 (unknown origin) expressed in HEK293T cells incubated for 2 hrs by NanoBRET assay
Type: cell-based
Reported pIC50 values for a set of molecules
Lab note: report pIC50 as minus log10 of the concentration in molar units, number only.

Example molecules with recorded pIC50:
Note to self: pIC50 recorded for "FC(F)(F)c1cnc(Nc2ccc3ncccc3c2)nc1NC1CC1" was 5.78

Measured pIC50 of "COc1ccc(Nc2ncc(C(F)(F)F)c(NC3CC3)n2)cc1OC" : 5.94

get_value(item= "FC(F)(F)c1cnc(Nc2ccc3nc[nH]c3c2)nc1NC1CC1" , readout=pIC50) returns 6.15

Further cases:
So, "Nc1ccc(Nc2ncc(C(F)(F)F)c(NC3CC3)n2)cc1" ? Its pIC50 was 5.77

Field pIC50 (entry "COc1cncc(Nc2ncc(C(F)(F)F)c(NC3CC3)n2)c1" ) reads 5.72

GET /value?item= "CNC(=O)c1ccccc1Oc1nc(Nc2cc(OC)c(OC)c(OC)c2)ncc1Br" &field=pIC50 returns 5.34

Quick note, pIC50 for "FC(F)(F)c1cnc(Nc2ccc3ncoc3c2)nc1NC1CC1" landed at 5.37

---

The entries below are paired with their reported IC50.
testedOn: Serine/threonine-protein kinase ULK1 (Homo sapiens, UniProt O75385)
procedureSummary: Inhibition of ULK1 (unknown origin) expressed in HEK293T cells incubated for 2 hrs by NanoBRET assay
Type: cell-based
Give your result in nM as a bare value.

Lab note: "FC(F)(F)c1cnc(Nc2ccnnc2)nc1NC1CC1" gave IC50 of 1610

In plain terms, "FC(F)(F)c1cnc(Nc2ccc3c(c2)OCCO3)nc1NC1CC1" has a documented IC50 of 4480

Measured IC50 of "CNc1nc(Nc2cnc3[nH]ccc3c2)ncc1C(F)(F)F" : 3630

Next:
Measured IC50, "O=C(Nc1ccc(Nc2ncc(C(F)(F)F)c(NC3CC3)n2)cc1)C1CC1" : 1330

---

testedOn: Serine/threonine-protein kinase ULK1 (Homo sapiens)
Sequence (O75385 whole entry): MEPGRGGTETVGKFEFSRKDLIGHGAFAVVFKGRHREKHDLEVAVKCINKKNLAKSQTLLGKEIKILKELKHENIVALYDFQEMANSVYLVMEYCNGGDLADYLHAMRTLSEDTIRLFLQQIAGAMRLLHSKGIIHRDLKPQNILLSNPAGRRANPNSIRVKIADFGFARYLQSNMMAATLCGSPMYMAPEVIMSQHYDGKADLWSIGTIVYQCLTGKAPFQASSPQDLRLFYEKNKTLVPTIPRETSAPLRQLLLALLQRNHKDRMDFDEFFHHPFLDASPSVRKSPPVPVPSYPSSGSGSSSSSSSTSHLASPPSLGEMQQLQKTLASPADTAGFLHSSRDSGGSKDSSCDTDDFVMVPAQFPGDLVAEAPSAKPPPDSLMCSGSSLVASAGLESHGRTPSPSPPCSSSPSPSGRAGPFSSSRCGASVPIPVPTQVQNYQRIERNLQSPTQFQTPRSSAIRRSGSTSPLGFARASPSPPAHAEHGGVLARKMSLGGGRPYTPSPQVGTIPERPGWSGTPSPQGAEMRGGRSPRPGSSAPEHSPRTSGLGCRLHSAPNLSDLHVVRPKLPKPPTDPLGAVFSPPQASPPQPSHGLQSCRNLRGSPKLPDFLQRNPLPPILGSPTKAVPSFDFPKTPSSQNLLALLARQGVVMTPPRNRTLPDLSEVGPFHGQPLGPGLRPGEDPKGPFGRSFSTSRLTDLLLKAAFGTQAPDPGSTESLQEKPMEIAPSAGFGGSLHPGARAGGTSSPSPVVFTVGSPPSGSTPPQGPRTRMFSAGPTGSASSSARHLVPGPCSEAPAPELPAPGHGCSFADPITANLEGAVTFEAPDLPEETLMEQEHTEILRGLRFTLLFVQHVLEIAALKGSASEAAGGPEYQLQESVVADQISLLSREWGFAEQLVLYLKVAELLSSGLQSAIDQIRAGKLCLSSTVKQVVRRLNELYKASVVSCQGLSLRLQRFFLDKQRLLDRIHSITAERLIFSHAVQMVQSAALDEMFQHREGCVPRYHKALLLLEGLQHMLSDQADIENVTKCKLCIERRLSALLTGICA
procedureSummary: Inhibition of recombinant human ULK1 (1-649) expressed in Sf9 cells using myelin basic protein as substrate by ADP-glo assay
experimentalSetup: sf9
observedProperty: pIC50
By convention, pIC50 is the negative base-10 log of a molar concentration.

pIC50 reported for this compound "COc1ccc(Nc2ncc(C(F)(F)F)c(NC3CC3)n2)cc1OC" : 7.89

---

procedureSummary: Tmax in C57BL/6J mouse at 30 mg/kg, po measured upto 24 hrs by LC-MS/MS analysis
Assay type: ADME, organism-based
experimentalSetup: in vivo
observedProperty: Tmax (h)
// units = h; emit number, no label

Item: "COc1ccc(Nc2ncc(C(F)(F)F)c(NC3CC3)n2)cc1OC" | Tmax: 1

---

procedureSummary: Half life in C57BL/6J mouse at 30 mg/kg, po measured upto 24 hrs by LC-MS/MS analysis
Assay type: ADME, organism-based
experimentalSetup: in vivo
observedProperty: half-life (h)
Provide the reading as a plain figure in h.

Note to self: half-life recorded for "COc1ccc(Nc2ncc(C(F)(F)F)c(NC3CC3)n2)cc1OC" was 1.7

---

testedOn: Serine/threonine-protein kinase ULK1 (Homo sapiens)
procedureSummary: Inhibition of ULK1 (unknown origin) expressed in HEK293T cells incubated for 2 hrs by NanoBRET assay
Format: cell-based
observedProperty: IC50

Previously resolved entries follow.
Per the records, this compound ( "FC(F)(F)c1cnc(Nc2cnc3[nH]ccc3c2)nc1NC1CC1" ) has IC50 equal to 1930 nM

IC50 for "O=C(C1CC1)N(C(=O)C1CC1)c1ccc(Nc2ncc(C(F)(F)F)c(NC3CC3)n2)cc1" is 1710 nM

// recorded IC50 for "FC(F)(F)c1cnc(Nc2cnc3[nH]ccc3c2)nc1NC1CCC1" : > 10000 nM

Summary for this compound, "CCN1CCOc2cc(Nc3ncc(C(F)(F)F)c(NC4CC4)n3)cnc21" : IC50 is 1210 nM

Read the next record carefully.
So, "FC(F)(F)c1cnc(Nc2ccc3[nH]ccc3c2)nc1NC1CC1" ? Its IC50 was 9840 nM

---

procedureSummary: Cmax in C57BL/6J mouse at 30 mg/kg, po measured upto 24 hrs by LC-MS/MS analysis
Format: ADME, organism-based
Design: route oral, dose 30 mg/kg, time <=24
experimentalSetup: in vivo
observedProperty: Cmax (nM)
Lab book: enter the figure in nM, no units written.

Documented Cmax of "COc1ccc(Nc2ncc(C(F)(F)F)c(NC3CC3)n2)cc1OC" : 990

---

testedOn: Serine/threonine-protein kinase ULK1 (Homo sapiens, UniProt O75385)
procedureSummary: Inhibition of ULK1 (unknown origin) expressed in HEK293T cells incubated for 2 hrs by NanoBRET assay
Type: cell-based
pIC50: −log10 of the molar value.
So basically: pIC50 at 6 or higher? That is 1.0. Lower than 6? That is 0.0.

Worked cases, answers included:
Exam item: Tell me whether pIC50 is at least 6 here: "COc1ccc(Nc2ncc(C(F)(F)F)c(NC3CC3)n2)cc1OC"
Marked response: 1.0

Exam item: Is reported pIC50 greater than or equal to 6 here: "FC(F)(F)c1cnc(Nc2cnc3ccccc3c2)nc1NC1CC1"
Marked response: 0.0

Exam item: Is it the case that "FC1(F)Oc2ccc(Nc3ncc(C(F)(F)F)c(NC4CC4)n3)cc2O1" has pIC50 reaching or exceeding 6?
Marked response: 0.0

Exam item: Would you say "FC(F)(F)c1cnc(Nc2ccc3c(c2)OCO3)nc1NC1CC1" shows pIC50 at minimum 6?
Marked response: 0.0

Exam item: Test whether the compound "Nc1nc(Nc2ccc3c(c2)OCO3)ncc1C(F)(F)F" records pIC50 of 6 or higher.
Marked response: 0.0

We next turn to a different compound, shown below.
Exam item: Determine whether this compound has pIC50 no lower than 6: "FC(F)(F)c1cnc(Nc2ccc3c(c2)OCCCO3)nc1NC1CC1"
Marked response: 0.0

---

testedOn: Serine/threonine-protein kinase ULK2 (Homo sapiens, UniProt Q8IYT8)
procedureSummary: Inhibition of recombinant human ULK2 (1 to 478 residues) expressed in Sf9 cells using myelin basic protein as substrate by ADP-glo assay
observedProperty: IC50 (nM)
Write the value in nM as a bare number.

Example entries begin here.
Record summary for "COc1cncc(Nc2ncc(C(F)(F)F)c(NC3CC3)n2)c1" : reported IC50 = 695

Recorded result, "FC(F)(F)c1cnc(Nc2ccc3nc[nH]c3c2)nc1NC1CC1" , IC50: 720

// recorded IC50 for "COc1ccc(Nc2ncc(C(F)(F)F)c(NC3CC3)n2)cc1OC" : 476

New cases:
molecule "Nc1ccc(Nc2ncc(C(F)(F)F)c(NC3CC3)n2)cc1" , IC50 observed: 1330

Note to self: IC50 recorded for "FC(F)(F)c1cnc(Nc2ccc3ncccc3c2)nc1NC1CC1" was 714

Looking up "CNC(=O)c1ccccc1Oc1nc(Nc2cc(OC)c(OC)c(OC)c2)ncc1Br" , I see its IC50 listed as 2450

Note to self: IC50 recorded for "FC(F)(F)c1cnc(Nc2ccc3ncoc3c2)nc1NC1CC1" was 1190

# credit: ChEMBL document CHEMBL4673296
